Cited source for all entries: patent US20240075137A1

Target: T1, human PVRIG on cells (human, UniProt Q6DKI7 1-326)
T1 construct: whole, on cells; over-expressed on HEK cells or endogenous on Jurkat and CD8 T cells; also called hPVRIG; HEK hPVRIG cells
T1 sequence (looked up): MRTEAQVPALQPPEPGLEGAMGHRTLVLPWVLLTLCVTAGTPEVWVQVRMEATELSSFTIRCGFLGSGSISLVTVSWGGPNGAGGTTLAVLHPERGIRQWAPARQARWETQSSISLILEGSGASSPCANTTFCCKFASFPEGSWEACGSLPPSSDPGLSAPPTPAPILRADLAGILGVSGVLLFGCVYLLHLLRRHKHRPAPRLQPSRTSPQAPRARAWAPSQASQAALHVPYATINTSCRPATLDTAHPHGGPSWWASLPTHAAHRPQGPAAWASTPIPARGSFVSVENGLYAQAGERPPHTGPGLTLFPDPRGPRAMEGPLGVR
Assay: FACS, Jurkat cells, relative to control, 3.3ug/ml
Would you mind telling me the reported gMFIr Jurkat of each entry?
Give the value as a plain number.

// query Could you share which gMFIr Jurkat value was measured for CHA.7.510 (antibody, V domains shown) VH: QVTLKESGPGILQPSQTLSLTCSFSGFSLNTSGTGVGWIRQPSGKGLEWLTHIWWNDNKFYNTFLKSRLTISKETSNNQVFLKIASVDTADAATYYCARMAYGNLWFVNWGQGTLVAVST VL: DIVLTQSPASLAVSLGQRASISCRASRSVTISGYSYMYWYQQKPGQPPRLLFYLASNLASGVPARFSGSGSGTDFTLNIHPVEEEDAAIYYCQHSRELPYTFGGGTKLEIK ?
// result 4.19

// query Next record, please: CHA.7.528 (antibody, V domains shown) VH: EVQVQQSGPELVKPGASVKISCKASGYTFTKSNMHWVKQSHGKSLEWIGYIYPYNGGTGYNQNFKSKATLTVDISSSTAYMELRSLTLEDSAVYLCAREADYYGNRGQFDYWGQGTLVTVSA VL: DIQMTQSPASLSVSVGETVTITCRASDNIFSNLAWYHQKQGKSPHLLVYGATNLADGVPSRFSGSGSGTQYSLKINSLQSEDFGDYYCQHFWGTPYTFGGGTKLEIK
// result 6.17

// query Next record, please: CHA.7.537 (antibody, V domains shown) VH: QVQLKESGPGLVAPSQSLSITCTVSGFSLIGHGVNWIRQPPGKGLEWLGVIWGDGNTDYNSALKSRLSISKDNSKSQVFLKMNSLQTDDTARYFCAVNSAMDYWGQGTAVTVSS VL: NIVMTQSPKSMSMSVGERVTLNCTASENVASFVSWYQQKPEQSPKLLIYGTSNRYTGVPDRFTGSGSATDFTLTISSVQAEDLGDYHCGQSYNYPFTFGSGTKLEIE
// result 5.53
